Source: patent US7723070B2

# Protein Yield per record follows
system: E. coli strain CAG18491/pQE15/pREP4; experiment: Translational activity: mDHFR synthesis in methionine-depleted cultures of conventional host; assay type: cell-based; settings: mDHFR from 1-liter cultures supplemented with the analogue

| compound | experimental_system | Protein Yield (mg/L) |
| --- | --- | --- |
| C=CCCC(N)C(=O)O (racemic) [Analogue 2, DL-2-amino-5-hexenoic acid] | E. coli strain CAG18491/pQE15/pREP4 | 10 |
| CCCC[C@H](N)C(=O)O [Analogue 9, L-norleucine] | E. coli strain CAG18491/pQE15/pREP4 | 20 |
| C/C=C/CC(N)C(=O)O (racemic) [Analogue 5, trans-2-amino-4-hexenoic acid] | E. coli strain CAG18491/pQE15/pREP4 | 0 |
| CSCC[C@H](N)C(=O)O [Analogue 1, L-methionine, reference compound] | E. coli strain CAG18491/pQE15/pREP4 | 35 |
| C#CCCC(N)C(=O)O (racemic) [Analogue 3, DL-homopropargylglycine] | E. coli strain CAG18491/pQE15/pREP4 | 35 |
